System: Acinetobacter baumannii
procedure.summary: Antibacterial activity against clinical isolate carbapenem and polymyxin resistant Acinetobacter baumannii Ptyela 100734512:2 after 18 hrs by 2 fold serial dilution method
Format: functional
measurement.conditions: Ptyela 100734512:2, 18 h
Numbered stars: 1 amine (or outer) side, 2 acyl side, 3 side chain; on linkers, the order of the positions; unused ones are H or OH. Bridge positions count the residues as written; N and C are the ends. Square brackets hold non-standard residues; d marks the D form. Peptide text beside a SMILES is read from it. * marks the point of attachment. Benzoyl(4-Ph) = O=C(c1ccc(-c2ccccc2)cc1)*; Bip = N[C@@H](Cc1ccc(-c2ccccc2)cc1)C(=O)O; X1 = c1ccc(-c2ccc(N*)cc2)cc1; NH(2-ClPh) = Clc1ccccc1N*; dDab = NCC[C@@H](N)C(=O)O; hSer = N[C@@H](CCO)C(=O)O; Octanoyl = CCCCCCCC(=O)*; Dab = NCC[C@H](N)C(=O)O; CO = O=C([*:1])[*:2]
readout.label: MIC

Below: 5 compounds and their reported MIC.
- compound: "CC(C)C[C@@H]1NC(=O)[C@@H](Cc2ccccc2)NC(=O)[C@H](CCN)NC(=O)[C@@H](NC(=O)[C@H](CCN)NC(=O)[C@@H](NC(=O)[C@H](CCN)NC(=O)c2ccc(-c3ccccc3)cc2)[C@@H](C)O)CCNC(=O)[C@H]([C@@H](C)O)NC(=O)[C@H](CCN)NC(=O)[C@H](CCN)NC1=O ({Benzoyl(4-Ph)}-[Dab]T[Dab][Dab][Dab][dF]L[Dab][Dab]T; lactam 4-C)"
  MIC: "8 µg/mL"
- compound: "CC(C)C[C@@H]1NC(=O)[C@@H](Cc2ccccc2)NC(=O)[C@H](CCN)NC(=O)[C@@H](NC(=O)[C@@H](CCN)NC(=O)[C@@H](NC(=O)[C@H](CCN)NC(=O)Nc2ccccc2Cl)[C@@H](C)O)CCNC(=O)[C@H]([C@@H](C)O)NC(=O)[C@H](CCN)NC(=O)[C@H](CCN)NC1=O ({NH(2-ClPh)-CO}-[Dab]T[dDab][Dab][Dab][dF]L[Dab][Dab]T; lactam 4-C)"
  MIC: "> 32 µg/mL"
- compound: "CC(C)C[C@@H]1NC(=O)[C@@H](Cc2ccccc2)NC(=O)[C@H](CCN)NC(=O)[C@@H](NC(=O)[C@@H](CO)NC(=O)[C@@H](NC(=O)[C@H](CCN)NC(=O)Nc2ccccc2Cl)[C@@H](C)O)CCNC(=O)[C@H]([C@@H](C)O)NC(=O)[C@H](CCN)NC(=O)[C@H](CCN)NC1=O ({NH(2-ClPh)-CO}-[Dab]T[dS][Dab][Dab][dF]L[Dab][Dab]T; lactam 4-C)"
  MIC: "> 32 µg/mL"
- compound: "CCCCCCCC(=O)N[C@@H](CCN)C(=O)N[C@H](C(=O)N[C@@H](CCN)C(=O)N[C@H]1CCNC(=O)[C@H]([C@@H](C)O)NC(=O)[C@H](CCN)NC(=O)[C@H](CCN)NC(=O)[C@H](CC(C)C)NC(=O)[C@@H](Cc2ccccc2)NC(=O)[C@H](CCN)NC1=O)[C@@H](C)O (Octanoyl-[Dab]T[Dab][Dab][Dab][dF]L[Dab][Dab]T; lactam 4-C)"
  MIC: "> 64 µg/mL"
- compound: "CCCCCCCC(=O)N[C@@H](CCN)C(=O)N[C@H](C(=O)N[C@@H](CCN)C(=O)N[C@H]1CCNC(=O)[C@H]([C@@H](C)O)NC(=O)[C@H](CCN)NC(=O)[C@H](CCN)NC(=O)[C@H](Cc2ccc(-c3ccccc3)cc2)NC(=O)[C@@H](Cc2ccccc2)NC(=O)[C@H](CCN)NC1=O)[C@@H](C)O (Octanoyl-[Dab]T[Dab][Dab][Dab][dF][Bip][Dab][Dab]T; lactam 4-C)"
  MIC: "32 µg/mL"

Query: What value of measured MIC is listed for CCCCCCCC(=O)N[C@@H](CCN)C(=O)N[C@H](C(=O)N[C@H](CO)C(=O)N[C@H]1CCNC(=O)[C@H]([C@@H](C)O)NC(=O)[C@H](CCN)NC(=O)[C@H](CCN)NC(=O)[C@H](CC(C)C)NC(=O)[C@@H](Cc2ccccc2)NC(=O)[C@H](CCN)NC1=O)[C@@H](C)O (Octanoyl-[Dab]T[dS][Dab][Dab][dF]L[Dab][Dab]T; lactam 4-C) ?
Response: > 32 µg/mL

Query: Would you mind doing CCCCCCCC(=O)N[C@@H](CCN)C(=O)N[C@H](C(=O)N[C@@H](CCN)C(=O)N[C@H]1CCNC(=O)[C@H]([C@@H](C)O)NC(=O)[C@H](CCN)NC(=O)[C@H](CCO)NC(=O)[C@H](CC(C)C)NC(=O)[C@@H](Cc2ccccc2)NC(=O)[C@H](CCN)NC1=O)[C@@H](C)O (Octanoyl-[Dab]T[Dab][Dab][Dab][dF]L[hSer][Dab]T; lactam 4-C) as well?
Response: > 32 µg/mL

Query: Would you mind doing CCCCCCCC(=O)N[C@@H](CCN)C(=O)N[C@H](C(=O)N[C@@H](CCN)C(=O)N[C@H]1CCNC(=O)[C@H]([C@@H](C)O)NC(=O)[C@H](CCNC(=O)[C@@H](N)CCC(=O)O)NC(=O)[C@H](CCN)NC(=O)[C@H](CC(C)C)NC(=O)[C@@H](Cc2ccccc2)NC(=O)[C@H](CCN)NC1=O)[C@@H](C)O (Octanoyl-[Dab]T[Dab][Dab][Dab][dF]L[Dab][Dab](Glu)T; lactam 4-C) as well?
Response: > 32 µg/mL

Query: Would you mind doing CC(C)C[C@@H]1NC(=O)[C@@H](Cc2ccccc2)NC(=O)[C@H](CCN)NC(=O)[C@@H](NC(=O)[C@H](CCN)NC(=O)[C@@H](NC(=O)[C@H](CCN)NC(=O)Nc2ccc(-c3ccccc3)cc2)[C@@H](C)O)CCNC(=O)[C@H]([C@@H](C)O)NC(=O)[C@H](CCN)NC(=O)[C@H](CCN)NC1=O ({X1-CO}-[Dab]T[Dab][Dab][Dab][dF]L[Dab][Dab]T; lactam 4-C) as well?
Response: 16 µg/mL

Query: Would you mind doing CCCCCCCC(=O)NCC(=O)N[C@@H](CCN)C(=O)N[C@H](C(=O)N[C@H]1CCNC(=O)[C@H]([C@@H](C)O)NC(=O)[C@H](CCN)NC(=O)[C@H](CCN)NC(=O)[C@H](CC(C)C)NC(=O)[C@@H](Cc2ccccc2)NC(=O)[C@H](CCN)NC1=O)[C@@H](C)O (Octanoyl-G[Dab]T[Dab][Dab][dF]L[Dab][Dab]T; lactam 4-C) as well?
Response: > 32 µg/mL

Query: Would you mind doing CCCCCCCC(=O)N[C@@H](CCN)C(=O)N[C@H](C(=O)N[C@@H](CCN)C(=O)N[C@H]1CCNC(=O)[C@H]([C@@H](C)O)NC(=O)[C@H](CCN)NC(=O)[C@H](CCN)NC(=O)[C@H](CC(C)C)NC(=O)[C@@H](Cc2ccccc2)NC(=O)[C@H](CCO)NC1=O)[C@@H](C)O (Octanoyl-[Dab]T[Dab][Dab][hSer][dF]L[Dab][Dab]T; lactam 4-C) as well?
Response: > 32 µg/mL
